# systemUnderTest: human V1a receptor (Homo sapiens)
# Sequence (P37288 whole entry): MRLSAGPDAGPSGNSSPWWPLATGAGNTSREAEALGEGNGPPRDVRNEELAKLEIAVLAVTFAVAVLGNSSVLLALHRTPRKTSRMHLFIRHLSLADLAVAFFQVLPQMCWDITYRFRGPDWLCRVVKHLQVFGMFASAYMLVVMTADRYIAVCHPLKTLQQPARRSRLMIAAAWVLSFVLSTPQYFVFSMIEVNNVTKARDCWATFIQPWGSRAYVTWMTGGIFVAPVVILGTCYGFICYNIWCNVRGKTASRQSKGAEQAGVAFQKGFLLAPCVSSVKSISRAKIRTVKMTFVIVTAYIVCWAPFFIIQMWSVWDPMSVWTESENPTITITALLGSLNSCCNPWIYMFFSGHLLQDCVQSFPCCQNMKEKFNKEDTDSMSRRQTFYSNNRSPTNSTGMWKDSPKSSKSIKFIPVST
# assayNotes: Cellular in vitro assay for determining vasopressin receptor activity, V1a receptor cell line (CHO, aequorin luminescence)
# conditionNotes: CHO cell line transfected with human V1a receptor; [Arg]-vasopressin at EC50 concentration; read-out: IC50 hV1a
Assign IC50 to each entry below.
Numeric only. Scale: nM

Short answer for O=C1CC[C@@H](CNC(=O)c2ccccc2-n2cnc(Cn3nc(-c4ccc(Cl)cc4)n(C[C@H](O)C(F)(F)F)c3=O)n2)N1 [Example 178] : IC50 was 18.5

Short answer for NC(=O)C1CCCN1C(=O)c1ncccc1-n1cnc(Cn2nc(-c3ccc(Cl)cc3)n(C[C@@H](O)C(F)(F)F)c2=O)n1 (mixture of isomers) [Example 467] : IC50 was 620

Short answer for Cc1cc(NC(=O)c2ccccc2-n2cnc(Cn3nc(-c4ccc(Cl)cc4)n(C[C@H](O)C(F)(F)F)c3=O)n2)ccc1F [Example 228] : IC50 was 5.65

Short answer for CN1CCC(C(=O)Nc2ncccc2-n2cnc(Cn3nc(-c4ccc(Cl)cc4)n(C[C@H](O)C(F)(F)F)c3=O)n2)CC1 [Example 109] : IC50 was 115

Short answer for O=C(c1ncccc1-n1cnc(Cn2nc(-c3ccc(Cl)cc3)n(C[C@H](O)C(F)(F)F)c2=O)n1)N1CCCCC1 [Example 445] : IC50 was 20

Short answer for CC1=NN=C(C)C1NC(=O)c1ccccc1-n1cnc(Cn2nc(-c3ccc(Cl)cc3)n(C[C@H](O)C(F)(F)F)c2=O)n1 [Example 201] : IC50 was 1.2
